# Test system: pERK1/2(THR202/TYR204) level in SW620 cell line
# methodNotes: KRAS G12V pERK assay in SW620 cells (HTRF)
# Format: cell-based
# appliedConditions: Table 4, 2 hrs compound treatment
# Protocol: SW620 cell line was used in this study. […] After 2 hrs compound treatment, cells were lysed, and the pERK1/2(THR202/TYR204) level in the cell lysates was detected by HTRF kit (Cisbio). […] When donor and acceptor are in close proximity, excitation of the donor with laser triggers a Fluorescence Resonance Energy Transfer (FRET) towards the acceptor, which in turn fluoresces at 655 nm wavelength. FRET signals were measured using a PHERAstar FSX reader (BMG Labtech). […]
recordedMetric: pIC50
# reply with the number alone; pIC50 is -log10 of concentration in mol/L

# input Return reported pIC50; argument: CN1c2nc(OC[C@@]34CCCN3C[C@H](F)C4)nc3c(F)c(-c4cc(N)cc(Cl)c4C(F)(F)F)nc(c23)OCCC12COC2 [Example 30]
# output 7.89

====

# IC50 annotations
# systemName: GST-tagged GDP-loaded KRAS G12V (amino acids 1-169) (Homo sapiens, UniProt P01116, G12V)
# Sequence (P01116 1-169 isoform P01116-2 G12V): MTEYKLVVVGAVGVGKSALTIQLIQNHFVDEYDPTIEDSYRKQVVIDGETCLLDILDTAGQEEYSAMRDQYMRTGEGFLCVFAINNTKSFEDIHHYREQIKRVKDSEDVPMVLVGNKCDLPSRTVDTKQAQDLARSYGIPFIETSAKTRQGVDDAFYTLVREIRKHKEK
# methodNotes: KRAS G12V probe displacement assay (TR-FRET)
# Format: binding
# appliedConditions: Table 4; KRAS G12V 2 nM, biotinylated probe 2 2.5 nM
# Protocol: Plates are incubated at 24 °C for 1 hr. […] After 1 hr incubation at 24° C.
Could you write the number and then its unit?

molecule: CN1CCCOc2cc(-c3ccc(F)c4sc(N)c(C#N)c34)c(F)c3nc(OC[C@@]45CCCN4C[C@H](F)C5)nc1c23
IC50: 3.6 nM

# input Return reported IC50; argument: CN1c2nc(OC[C@@]34CCCN3C[C@H](F)C4)nc3c(F)c(-c4cc(N)cc(Cl)c4C(F)(F)F)nc(c23)OC[C@H]2COC[C@@H]21 (single isomer, unassigned) [Example 68 Isomer 1]
# output 1.8 nM

# input Also `C#Cc1c(F)ccc2cc(O)cc(-c3nc4c5c(nc(OC[C@@]67CCCN6C[C@H](F)C7)nc5c3F)N(C3CCC3)CCCO4)c12` , if possible.
# output 1.4 nM

====

# systemName: GST-tagged GDP-loaded KRAS G12D (amin acids 1-188) (Homo sapiens, UniProt P01116, G12D)
# Sequence (P01116 1-188 isoform P01116-2 G12D): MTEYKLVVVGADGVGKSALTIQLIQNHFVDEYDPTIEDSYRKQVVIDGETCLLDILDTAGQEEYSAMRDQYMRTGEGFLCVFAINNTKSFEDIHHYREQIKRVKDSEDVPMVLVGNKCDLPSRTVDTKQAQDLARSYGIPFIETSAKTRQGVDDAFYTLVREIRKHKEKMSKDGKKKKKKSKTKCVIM
# methodNotes: KRAS G12D probe displacement assay (TR-FRET)
# appliedConditions: Table 5; KRAS G12D 0.5 nM, biotinylated probe 2 4 nM
# IC50 annotations
Please reply with the bare figure in nM and do not write the unit itself.

Solved entries (count: 5):
molecule: CN(C)CCN1c2nc(OC[C@@]34CCCN3C[C@H](F)C4)nc3c(F)c(-c4cc(N)cc(Cl)c4C(F)(F)F)nc(c23)OCCC12CC2
IC50, nM: 0.73
--
molecule: CN1CCC[C@@]2(COc3nc4c5c(nc(-c6cc(N)cc(Cl)c6C(F)(F)F)c(F)c5n3)O[C@H]3COCC[C@@H]3N4C)CCC[C@@H]12
IC50, nM: 0.1
--
molecule: C#Cc1c(F)ccc2cc(O)cc(-c3nc4c5c(nc(OC[C@@]67CCCN6C[C@H](F)C7)nc5c3F)N(C)CCCO4)c12
IC50, nM: 1.1
--
molecule: CNCCN1CCCOc2nc(-c3cc(N)cc(Cl)c3C(F)(F)F)c(F)c3nc(OC[C@@]45CCCN4C[C@H](F)C5)nc1c23
IC50, nM: 9.6
--
molecule: CN1c2nc(OC[C@@]34CCCN3C[C@H](F)C4)nc3c(F)c(-c4cc(N)cc(Cl)c4C(F)(F)F)nc(c23)O[C@H]2COCC[C@@H]21
IC50, nM: 0.27

# input Return reported IC50; argument: CN1c2nc(OC[C@@]34CCCN3C[C@H](F)C4)nc3c(F)c(-c4cc(N)cc(Cl)c4C(F)(F)F)nc(c23)OC[C@@H]2COC[C@H]21 (single isomer, unassigned) [Example 68 Isomer 2]
# output 0.14

# input Also `CN(C)CCN1c2nc(OC[C@@]34CCCN3C[C@H](F)C4)nc3c(F)c(-c4cc(N)cc(Cl)c4C(F)(F)F)nc(c23)OCC12CCC2` , if possible.
# output 2.3

# input Also `CNCCN1c2nc(OC[C@@]34CCCN3C[C@H](F)C4)nc3c(F)c(-c4cc(N)cc(Cl)c4C(F)(F)F)nc(c23)OCCC12CC2` , if possible.
# output 0.17

# input Also `CNCCN1c2nc(OC[C@@]34CCCN3C[C@H](F)C4)nc3c(F)c(-c4cc(N)cc(Cl)c4C(F)(F)F)nc(c23)O[C@H]2CCCC[C@@H]21` , if possible.
# output 20

# input Also CNCC(C)N1c2nc(OC[C@@]34CCCN3C[C@H](F)C4)nc3c(F)c(-c4cc(N)cc(Cl)c4C(F)(F)F)nc(c23)OCC12CCC2 (some centres unmarked) , if possible.
# output 0.38

====

# systemName: GST-tagged GDP-loaded KRAS G12V (amino acids 1-169) (Homo sapiens, UniProt P01116, G12V)
# methodNotes: KRAS G12V probe displacement assay (TR-FRET)
# appliedConditions: Table 4; KRAS G12V 2 nM, biotinylated probe 2 2.5 nM
So basically: is IC50 under 3 nM? Then rule met. Not under? Then rule not met.

Example entries begin here.
compoundStructure: Cc1c(F)c(N)cc(-c2nc3c4c(nc(OC[C@@]56CCCN5C[C@H](F)C6)nc4c2F)N(C)[C@H]2CCOC[C@@H]2O3)c1C(F)(F)F
labelValue: rule met
//
compoundStructure: CN1c2nc(OC[C@@]34CCCN3C[C@H](F)C4)nc3c(F)c(-c4cc(N)cc(Cl)c4C(F)(F)F)nc(c23)OCCC12COC2
labelValue: rule met
//
compoundStructure: CCN1c2nc(OC[C@@]34CCCN3C[C@H](F)C4)nc3c(F)c(-c4cc(N)cc(C)c4C(F)(F)F)nc(c23)OCCC12COC2
labelValue: rule met
//
compoundStructure: CN1c2nc(OC[C@@]34CCCN3C[C@H](F)C4)nc3c(F)c(-c4cc(N)cc(Cl)c4C(F)(F)F)nc(c23)OCC12COC2
labelValue: rule not met

# input Check if IC50 falls below 3 nM for `CN1CC2(COC2)COc2nc(-c3cc(N)cc(Cl)c3C(F)(F)F)c(F)c3nc(OC[C@@]45CCCN4C[C@H](F)C5)nc1c23` .
# output rule not met

# input Also `Cc1cc(N)cc(-c2nc3c4c(nc(OC[C@@]56CCCN5C[C@H](F)C6)nc4c2F)N(C)CCO3)c1C(F)(F)F` , if possible.
# output rule not met

# input Also `CN1c2nc(OC[C@@]34CCCN3C[C@H](F)C4)nc3c(F)c(-c4cc(N)cc(Cl)c4C(F)(F)F)nc(c23)OCC12CCC2` , if possible.
# output rule met

====

# IC50 annotations
# systemName: GST-tagged GDP-loaded KRAS G12D (amin acids 1-188) (Homo sapiens, UniProt P01116, G12D)
# methodNotes: KRAS G12D probe displacement assay (TR-FRET)
# appliedConditions: Table 5; KRAS G12D 0.5 nM, biotinylated probe 2 4 nM
Please reply with the bare figure in nM and do not write the unit itself.

Solved entries (count: 3):
compound: CN1c2nc(OC[C@@]34CCCN3C[C@H](F)C4)nc3c(F)c(-c4cc(N)cc(Cl)c4C(F)(F)F)nc(c23)OCC2CNCC21 (stereo partly shown) [Example 27]
systemName: GST-tagged GDP-loaded KRAS G12D (amin acids 1-188) (Homo sapiens, UniProt P01116, G12D)
resultUnits: nM
IC50: 0.95
--
compound: Cc1cc(N)cc(-c2nc3c4c(nc(OC[C@@]56CCCN5C[C@H](F)C6)nc4c2F)N(C)[C@@H]2COCC[C@H]2O3)c1C(F)(F)F [Example 61]
systemName: GST-tagged GDP-loaded KRAS G12D (amin acids 1-188) (Homo sapiens, UniProt P01116, G12D)
resultUnits: nM
IC50: 0.57
--
compound: CNCCN1c2nc(OC[C@@]34CCCN3C[C@H](F)C4)nc3c(F)c(-c4cc(N)cc(Cl)c4C(F)(F)F)nc(c23)OCC12CCC2 [Example 36]
systemName: GST-tagged GDP-loaded KRAS G12D (amin acids 1-188) (Homo sapiens, UniProt P01116, G12D)
resultUnits: nM
IC50: 1.1

# input Return reported IC50; argument: C[C@@H]1C[C@H](C)Oc2nc(-c3cc(N)cc(Cl)c3C(F)(F)F)c(F)c3nc(OC[C@@]45CCCN4C[C@H](F)C5)nc(c23)N1C [Example 34]
# output 0.59

====

# systemName: GST-tagged GDP-loaded KRAS G12V (amino acids 1-169) (Homo sapiens, UniProt P01116, G12V)
# methodNotes: KRAS G12V probe displacement assay (TR-FRET)
# Format: binding
# appliedConditions: Table 4; KRAS G12V 2 nM, biotinylated probe 2 2.5 nM
recordedMetric: IC50 (nM)
Please reply with the bare figure in nM and do not write the unit itself.

Solved entries (count: 3):
compound: Cc1cc(N)cc(-c2nc3c4c(nc(OC[C@@]56CCCN5C[C@H](F)C6)nc4c2F)N(C)[C@@H]2COCC[C@H]2O3)c1C(F)(F)F
systemName: GST-tagged GDP-loaded KRAS G12V (amino acids 1-169) (Homo sapiens, UniProt P01116, G12V)
IC50 / nM: 0.8

compound: CN1c2nc(OC[C@@]34CCCN3C[C@H](F)C4)nc3c(F)c(-c4cc(N)cc(Cl)c4C(F)(F)F)nc(c23)O[C@H]2CCOC[C@@H]21
systemName: GST-tagged GDP-loaded KRAS G12V (amino acids 1-169) (Homo sapiens, UniProt P01116, G12V)
IC50 / nM: 0.61

compound: CCN1c2nc(OC[C@@]34CCCN3C[C@H](F)C4)nc3c(F)c(-c4cc(N)cc(C)c4C(F)(F)F)nc(c23)O[C@H]2COCC[C@@H]21
systemName: GST-tagged GDP-loaded KRAS G12V (amino acids 1-169) (Homo sapiens, UniProt P01116, G12V)
IC50 / nM: 0.83

# input Return reported IC50; argument: `CN1c2nc(OC[C@@]34CCCN3C[C@H](F)C4)nc3c(F)c(-c4cc(N)cc(Cl)c4C(F)(F)F)nc(c23)OCC12CC2`
# output 0.95

# input Also `Cc1cc(N)cc(-c2nc3c4c(nc(OC[C@@]56CCCN5C[C@H](F)C6)nc4c2F)N(C)C2(CCO3)CC2)c1C(F)(F)F` , if possible.
# output 0.63

# input Also CCc1c(F)ccc2cc(O)cc(-c3nc4c5c(nc(OC[C@@]67CCCN6C[C@H](F)C7)nc5c3F)N(C)C(C)CCO4)c12 (stereo partly shown) , if possible.
# output 1.4

# input Also CN1c2nc(OCC3(C)CCC4COCCN4C3)nc3c(F)c(-c4cc(N)cc(Cl)c4C(F)(F)F)nc(c23)O[C@H]2COCC[C@@H]21 (stereo partly shown) , if possible.
# output 0.63

# input Also `C[C@@H]1C[C@H](C)Oc2nc(-c3cc(N)cc(Cl)c3C(F)(F)F)c(F)c3nc(OC[C@@]45CCCN4C[C@H](F)C5)nc(c23)N1C` , if possible.
# output 0.59

# input Also `CN1c2nc(OC[C@@]34CCCN3C[C@H](F)C4)nc3c(F)c(-c4ccc(F)c5sc(N)c(C#N)c45)c(Cl)c(c23)OCC12COC2` , if possible.
# output 0.84

# input Also `C[C@@H]1CCOc2nc(-c3cc(N)cc(Cl)c3C(F)(F)F)c(F)c3nc(OC[C@@]45CCCN4C[C@H](F)C5)nc(c23)N1C` , if possible.
# output 0.79
